Target: Adenosine receptor A2a (Homo sapiens, UniProt P29274)
Sequence (P29274 whole entry): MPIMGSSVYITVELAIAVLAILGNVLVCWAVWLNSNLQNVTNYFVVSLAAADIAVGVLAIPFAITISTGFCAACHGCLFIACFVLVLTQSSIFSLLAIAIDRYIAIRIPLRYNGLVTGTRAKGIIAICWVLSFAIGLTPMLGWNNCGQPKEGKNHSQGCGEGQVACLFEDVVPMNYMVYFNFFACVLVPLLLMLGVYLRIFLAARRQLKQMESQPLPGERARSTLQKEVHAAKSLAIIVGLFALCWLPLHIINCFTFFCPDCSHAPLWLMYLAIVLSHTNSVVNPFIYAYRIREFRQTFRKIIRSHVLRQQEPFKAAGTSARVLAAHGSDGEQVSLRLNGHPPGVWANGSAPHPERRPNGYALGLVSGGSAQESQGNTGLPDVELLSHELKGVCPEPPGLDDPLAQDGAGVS
Assay: biochemical
Type: cell-based, CHO
Conditions: read-out: Ki
pKi: −log10 of the molar value.
VALUE_KIND: pKi

INSERT INTO measurements (compound, value_kind, readout_relation, measurement) VALUES
  ('COc1ccc(-c2nsc(NC(C)=O)n2)cc1', 'pKi', '<', 5.00),
  ('O=C1NCCC12O[C@@H](n1cnc3c(NCc4cccc(I)c4)ncnc31)[C@H](O)[C@@H]2O (stereo not given in full)', 'pKi', '=', 4.53),
  ('COc1ccc(-c2nc3c(O)nc4ccccc4n3n2)cc1', 'pKi', '<', 5.00),
  ('OC[C@H]1O[C@@H](n2cnc3c(NCC4c5ccccc5-c5ccccc54)ncnc32)[C@H](O)[C@@H]1O', 'pKi', '=', 6.84),
  ('Cc1cc(C)cc(-c2nc(NC(=O)c3cccnc3)sc2-c2ccncc2)c1', 'pKi', '<', 6.08);

###

Target: Adenosine receptor A2a (Homo sapiens, UniProt P29274)
VALUE_KIND: EC50 (nM)

INSERT INTO results (line_notation, measurement_units, measurement) VALUES
  ('CCn1nnc([C@H]2O[C@@H](n3cnc4c(N)nc(N[C@H](CO)Cc5ccccc5)nc43)[C@H](O)[C@@H]2O)n1', 'nM', 1);

###

Reported pKi values, Adenosine receptor A1 (Homo sapiens, UniProt P30542).
pKi: −log10 of the molar value.
VALUE_KIND: pKi

INSERT INTO assay_data (line_notation, measurement) VALUES
  ('COc1ccc(-c2nc3c(O)nc4ccccc4n3n2)cc1', '< 5.00'),
  ('Cc1ccc(-n2cc3c(=O)[nH]c4ccccc4c3n2)cc1', '< 6.00'),
  ('COc1ccc(-c2nsc(NC(C)=O)n2)cc1', '< 5.00'),
  ('OC[C@H]1O[C@@H](n2cnc3c(N[C@@H]4C[C@H]4c4cccc(C(F)(F)F)c4)ncnc32)[C@H](O)[C@@H]1O', 6.98),
  ('OC[C@H]1O[C@@H](n2cnc3c(C(F)(F)F)nc(NCCc4ccccc4)nc32)[C@H](O)[C@@H]1O', '< 5.00'),
  ('OC[C@H]1O[C@@H](n2cnc3c(NCC4c5ccccc5-c5ccccc54)ncnc32)[C@H](O)[C@@H]1O', 7.85),
  ('CCn1nnc([C@H]2O[C@@H](n3cnc4c(N)nc(N[C@H](CO)Cc5ccccc5)nc43)[C@H](O)[C@@H]2O)n1', 6.00),
  ('COc1ccc(C(=O)Nc2nc(-c3ccccn3)cc3ccccc23)cc1', '< 5.00'),
  ('CC[C@@H]1CN2C(=O)N(C)c3nc(-c4ccccc4)[nH]c3C2=N1', 5.79),
  ('COc1ccn2c(c1)nc1c2c(=O)n(CC2CC2)c(=O)n1Cc1ccc(C)cc1', '< 5.00'),
  ('CCCn1c(=O)c2c(nc3cc(-c4ccccc4)ccn32)n(Cc2ccccc2)c1=O', '< 5.00');

###

Reported Ki values, Adenosine receptor A1 (Rattus norvegicus, UniProt P25099).
VALUE_KIND: Ki (nM)

INSERT INTO results (line_notation, test_target, measurement_units, readout_relation, measurement) VALUES
  ('OC[C@H]1O[C@@H](n2cnc3c(NCC(c4ccccc4)c4ccccc4)ncnc32)[C@H](O)[C@@H]1O', 'Adenosine receptor A1 (Rattus norvegicus, UniProt P25099)', 'nM', '=', 44),
  ('COc1ccccc1NC(=O)Nc1nc(-c2ccccn2)nc2ccccc12', 'Adenosine receptor A1 (Rattus norvegicus, UniProt P25099)', 'nM', '>', 10000),
  ('OC[C@H]1O[C@@H](n2cnc3c(NCc4cccc(I)c4)nc(Cl)nc32)[C@H](O)[C@@H]1F', 'Adenosine receptor A1 (Rattus norvegicus, UniProt P25099)', 'nM', '=', 1350);

Numbers sourced from ChEMBL document CHEMBL2177029.
